# Test system: Wistar rats
# Protocol description: Subacute toxicity: water and electrolyte balance (osmolality, sodium, potassium, urinary flow)
# Assay type: in vivo
# Experimental context: rats, p.o., 14 days at 10% of LD50 (CCl4, APAP: once daily, 3 days); mean ± SEM, n = 6
The following molecules are shown together with reported Urinary Potassium Excretion values.
// note: answer is a bare numeric in µEq/min

Below, each entry is followed by its recorded Urinary Potassium Excretion result.
Complete the entry with Urinary Potassium Excretion for ClC(Cl)(Cl)Cl [CCl4, carbon tetrachloride, reference compound] 0.73

Complete the entry with Urinary Potassium Excretion for O=C(O)c1cn2ccccc2n1 [Compound 3a, imidazo[1,2-a]pyridine-2-carboxylic acid] 0.50

Next:
Complete the entry with Urinary Potassium Excretion for N#Cc1cn2ccccc2n1 [Compound 2a, imidazo[1,2-a]pyridine-2-carbonitrile] 0.64

Complete the entry with Urinary Potassium Excretion for O=C(O)c1nc2ccccn2c1[N+](=O)[O-] [Compound 3b] 0.43

###

# Tested on: Wistar rats
# Protocol description: Subacute toxicity: water and electrolyte balance (osmolality, sodium, potassium, urinary flow)
# Type: in vivo
# Experimental context: rats, p.o., 14 days at 10% of LD50 (CCl4, APAP: once daily, 3 days); mean ± SEM, n = 6
The following compounds are shown together with reported Fractional Excretion of Potassium values.
// note: answer is a bare numeric in %

Below, each entry is followed by its recorded Fractional Excretion of Potassium result.
Complete the entry with Fractional Excretion of Potassium for ClC(Cl)(Cl)Cl [CCl4, carbon tetrachloride, reference compound] 6.86

Complete the entry with Fractional Excretion of Potassium for CCOC(=O)c1nc2ccccn2c1[N+](=O)[O-] [Compound 1b] 15.58

Complete the entry with Fractional Excretion of Potassium for N#Cc1cn2ccccc2n1 [Compound 2a, imidazo[1,2-a]pyridine-2-carbonitrile] 13.55

Complete the entry with Fractional Excretion of Potassium for O=C(O)c1cn2ccccc2n1 [Compound 3a, imidazo[1,2-a]pyridine-2-carboxylic acid] 27.89

Complete the entry with Fractional Excretion of Potassium for CCOC(=O)c1cn2ccccc2n1 [Compound 1a] 22.26

Complete the entry with Fractional Excretion of Potassium for N#Cc1nc2ccccn2c1[N+](=O)[O-] [Compound 2b] 13.47

Complete the entry with Fractional Excretion of Potassium for CC(=O)Nc1ccc(O)cc1 [APAP, acetaminophen, reference compound] 12.50

Now consider a different compound.
Complete the entry with Fractional Excretion of Potassium for O=C(O)c1nc2ccccn2c1[N+](=O)[O-] [Compound 3b] 11.63

###

The following compounds are shown together with reported Filtered Load of Glucose values.
# Tested on: Wistar rats
# Protocol description: Subacute toxicity: serum and urine glucose, urinary protein excretion
# Type: in vivo
# Experimental context: rats, p.o., 14 days at 10% of LD50 (CCl4, APAP: once daily, 3 days); mean ± SEM, n = 6
// note: answer is a bare numeric in mg/min

Complete the entry with Filtered Load of Glucose for ClC(Cl)(Cl)Cl [CCl4, carbon tetrachloride, reference compound] 4.64

Complete the entry with Filtered Load of Glucose for O=C(O)c1cn2ccccc2n1 [Compound 3a, imidazo[1,2-a]pyridine-2-carboxylic acid] 0.22

Complete the entry with Filtered Load of Glucose for O=C(O)c1nc2ccccn2c1[N+](=O)[O-] 0.74

Complete the entry with Filtered Load of Glucose for CC(=O)Nc1ccc(O)cc1 [APAP, acetaminophen, reference compound] 1.35

Complete the entry with Filtered Load of Glucose for N#Cc1cn2ccccc2n1 [Compound 2a, imidazo[1,2-a]pyridine-2-carbonitrile] 0.90

Complete the entry with Filtered Load of Glucose for CCOC(=O)c1cn2ccccc2n1 0.39

Complete the entry with Filtered Load of Glucose for N#Cc1nc2ccccn2c1[N+](=O)[O-] 2.29

Complete the entry with Filtered Load of Glucose for CCOC(=O)c1nc2ccccn2c1[N+](=O)[O-] 0.31
